Exercise: state measured TGI for each of the compounds provided.
# Tested on: MALME-3M melanoma
# testName: NCI tumour cell line growth inhibition, 48 h

Example compounds with recorded TGI:
COc1ccccc1N(CN1C(=O)CCC1C(=O)O)C(C)=O (centres undefined) :: > 100 µM
Cc1cc(N(CCC#N)CCC#N)ccc1/C=C1\N=C(c2cc([N+](=O)[O-])ccc2Cl)N(c2cccc(Cl)c2)C1=O :: > 100 µM
COc1cc(/C=C2/SC(c3ccccc3)N(c3ccccc3Cl)C2=O)cc(OC)c1OC (centres undefined) :: 64.7 µM

Kindly consider the entry below.
The compound listed as COc1ccc2c(c1)[n+](=O)c(C(=O)C/C(=N/OCCCc1ccccc1)C(=O)NC13CC4CC(CC(C4)C1)C3)c(C)n2[O-] shows TGI equal to > 100 µM
